Quick reference for z-score among some compounds
assay: DUSP6 inhibitors restoring Erk phosphorylation by chemical complementation, primary imaging in DUSP6-transfected HeLa (AID 609); conditions: HeLa MKP-3 transfected, phospho-Erk imaging KS statistic; measured here: nuclear pErk red intensity z-score; at 10 µM; stronger effect = higher value; cells stimulated with TPA for 15 min
Parameter measured: z-score

[[record]]
compound = "CC(C)(C)n1cnc2cc(NS(=O)(=O)c3ccc(Br)cc3)ccc21"
parameter_measured = "z-score"
experimental_result = -0.322

[[record]]
compound = "CC1(C)CC(=O)C=C(NCc2ccncc2)C1"
parameter_measured = "z-score"
experimental_result = -1.6

[[record]]
compound = "CN1CCCN(C(c2ccccc2)c2ccc(Cl)cc2)CC1 (configuration not stated)"
parameter_measured = "z-score"
experimental_result = 0.2

[[record]]
compound = "CCCOc1cccc(C2/C(=C(/O)c3ccccc3)C(=O)C(=O)N2CCN(C)C)c1 (configuration not stated)"
parameter_measured = "z-score"
experimental_result = 1.7

[[record]]
compound = "COc1cccc(Cn2c(OCC3CCCO3)nc3c2c(=O)n(C)c(=O)n3C)c1 (configuration not stated)"
parameter_measured = "z-score"
experimental_result = 0.516

[[record]]
compound = "COc1ccc(CNC(=O)[C@H](C)NC(=O)C2CCN(S(=O)(=O)c3ccc(C)cc3)CC2)cc1"
parameter_measured = "z-score"
experimental_result = 0.673

[[record]]
compound = "COc1ccccc1-c1nnc2sc(C3CCCCC3)nn12"
parameter_measured = "z-score"
experimental_result = 0.848

[[record]]
compound = "CN=C1c2cc3c(Br)c(OC)ccc3n2CCN1C"
parameter_measured = "z-score"
experimental_result = 0.361

[[record]]
compound = "C[C@@H]1C[C@H]2[C@@H]3CCC4=CC(=O)C=C[C@]4(C)[C@@]3(F)[C@@H](O)C[C@]2(C)[C@@]1(O)C(=O)COP(=O)(O)O"
parameter_measured = "z-score"
experimental_result = -0.291

[[record]]
compound = "C/C(=N\\O)C1(C)N(O)C(C)(C)C(c2ccco2)=[N+]1[O-] (configuration not stated)"
parameter_measured = "z-score"
experimental_result = -0.0605

[[record]]
compound = "CN1C2C=C3C(C#N)=C(N)C(C#N)(C#N)[C@@H](c4ccc(Cl)cc4)[C@@H]3C1CC2 (some centres not stated)"
parameter_measured = "z-score"
experimental_result = 0.349

[[record]]
compound = "c1ccc(-c2nnc(OCCN3CCOCC3)c3ccccc23)cc1"
parameter_measured = "z-score"
experimental_result = 1.89

[[record]]
compound = "COC(=O)C(NC(C)=O)(Nc1ccccn1)C(F)(F)F (configuration not stated)"
parameter_measured = "z-score"
experimental_result = -0.0238

[[record]]
compound = "COCCOC(=O)C1=C(C)NC(C)=C(C(=O)OC(C)C)C1c1cccc([N+](=O)[O-])c1 (configuration not stated)"
parameter_measured = "z-score"
experimental_result = -0.963

[[record]]
compound = "Cc1cc(C)n2c3c(c(C#N)c2n1)CC(C)(C)OC3"
parameter_measured = "z-score"
experimental_result = -0.0691

[[record]]
compound = "CCCOC(=O)CSC1=C(C#N)C(c2ccccc2OCC)C(C#N)C(=O)N1 (configuration not stated)"
parameter_measured = "z-score"
experimental_result = 1.5

[[record]]
compound = "CN(C)CCOC(=O)C(c1ccccc1)C1(O)CCCC1 (configuration not stated)"
parameter_measured = "z-score"
experimental_result = 1.54

[[record]]
compound = "C=CCn1c(=S)[nH]c2ccccc2c1=O"
parameter_measured = "z-score"
experimental_result = 0.00467

[[record]]
compound = "CCCSc1nnc2n(-c3ccccc3OC)c(=O)c3c4c(sc3n12)CCC4"
parameter_measured = "z-score"
experimental_result = -0.347

[[record]]
compound = "COc1ccc(-c2oc3ncn4nc(COc5ccccc5)nc4c3c2-c2ccc(OC)cc2)cc1"
parameter_measured = "z-score"
experimental_result = -0.924

[[record]]
compound = "Cn1c(=O)c2c(nc(Br)n2CCSc2ncccn2)n(C)c1=O"
parameter_measured = "z-score"
experimental_result = -1.04

[[record]]
compound = "CCOC(=O)CC(C#N)c1cn(C)c2ccccc12 (configuration not stated)"
parameter_measured = "z-score"
experimental_result = 0.369

